Recorded Kd values for a group of compounds are listed next.
Target System: Bone morphogenetic protein receptor type-1A (Homo sapiens, UniProt P36894); further: in the data inactive means no Kd found up to 30 µM
Sequence (P36894 whole entry): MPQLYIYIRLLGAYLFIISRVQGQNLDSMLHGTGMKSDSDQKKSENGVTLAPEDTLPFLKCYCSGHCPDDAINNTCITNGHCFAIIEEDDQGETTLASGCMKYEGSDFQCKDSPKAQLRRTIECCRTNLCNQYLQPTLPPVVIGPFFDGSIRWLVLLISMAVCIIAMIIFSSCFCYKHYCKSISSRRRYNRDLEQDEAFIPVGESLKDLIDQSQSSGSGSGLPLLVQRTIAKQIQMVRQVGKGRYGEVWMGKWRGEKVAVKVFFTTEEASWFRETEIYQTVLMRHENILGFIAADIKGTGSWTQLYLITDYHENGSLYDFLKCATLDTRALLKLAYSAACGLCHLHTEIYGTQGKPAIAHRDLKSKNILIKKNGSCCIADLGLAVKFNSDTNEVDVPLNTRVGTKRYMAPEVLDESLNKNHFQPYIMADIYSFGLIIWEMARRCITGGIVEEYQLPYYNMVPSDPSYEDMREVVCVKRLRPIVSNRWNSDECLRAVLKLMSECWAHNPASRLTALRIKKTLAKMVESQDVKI
Where a name gives a salt, the structure may show the parent alone. Calls of active or inactive are those of the source.
Outcome Measure: Kd

Compound: CCS(=O)(=O)N1CCN(c2ccc(Nc3ncc(C(N)=O)c(NC4CC4)n3)cc2)CC1 [Cerdulatinib Hydrochloride]
Assay Result: > 30 µM (inactive)

Compound: CC(C)(C)c1nc(-c2cccc(NS(=O)(=O)c3c(F)cccc3F)c2F)c(-c2ccnc(N)n2)s1
Assay Result: > 30 µM (inactive)

Compound: Cc1nc(Nc2n[nH]c3c2CN(C(=O)N[C@H](CN(C)C)c2ccccc2)C3(C)C)c2sccc2n1
Assay Result: > 30 µM (inactive)

Compound: CCS(=O)(=O)c1cccc(-c2cc(C(=O)NC3CCN(C)CC3)c(C)c3[nH]c4ncc(C)cc4c23)c1
Assay Result: > 30 µM (inactive)
